The reported numbers originate from patent US11071731B2.

EC50 by entry:
TARGET: mu opioid receptor (MOR) (Homo sapiens, UniProt P35372)
Sequence (P35372 whole entry): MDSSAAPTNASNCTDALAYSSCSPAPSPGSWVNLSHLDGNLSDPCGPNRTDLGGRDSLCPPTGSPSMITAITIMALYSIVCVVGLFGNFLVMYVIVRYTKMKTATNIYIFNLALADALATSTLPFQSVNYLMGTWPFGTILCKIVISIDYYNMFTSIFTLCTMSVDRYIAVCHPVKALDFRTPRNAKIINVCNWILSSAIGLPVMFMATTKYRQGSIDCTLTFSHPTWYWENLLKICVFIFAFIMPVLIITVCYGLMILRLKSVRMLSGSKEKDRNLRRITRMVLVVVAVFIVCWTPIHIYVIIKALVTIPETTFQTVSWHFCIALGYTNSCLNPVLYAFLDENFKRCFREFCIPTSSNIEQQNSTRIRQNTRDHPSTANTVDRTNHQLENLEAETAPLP
PROTOCOL_DETAILS: PathHunter β-arrestin recruitment assay, PAM mode with EC20 endomorphin-1
Type: cell-based
MEASUREMENT_CONDITIONS: β-arrestin recruitment; read-out: β-arr. EC50

| COMPOUND | EC50 |
| --- | --- |
| OC1CCN(c2nc(Cl)ncc2F)C(c2ccc(F)c(Br)c2)C1 (stereo not shown) | > 2100 nM |
| Fc1cc(C2CCCCN2c2nc(Cl)ncc2F)cc(C(F)(F)F)c1 (single isomer, unassigned) [compound 423] | < 700 nM |
| O=S(=O)(c1ccc(Cl)cc1)N1CCCCC1c1cncc(F)c1 (racemic) | > 2100 nM |

What measured EC50 goes with COc1ccc(C2CC(C(F)(F)F)CN2S(=O)(=O)c2ccc(Cl)cc2)cc1Br (single isomer, unassigned) [Compound 109] ? > 2100 nM
